- systemName: T1, human EGFRvIII-hFc protein (human, UniProt P00533 25-645)
- T1 construct: extracellular domain; also called immunogen A; hFc-tagged EGFRvIII protein; not shown: human IgG Fc fragment (hFc) of the pCpC vector
- experimentSummary: ELISA, EGFRvIII-hFc coated
- Experimental: The purified immunogen A (EGFRvIII-hFc) obtained in example 1 (for the preparation method, see step (I) in example 1) is diluted with PBS to a final concentration of 1.0 μg/mL, and then added to a 96-well ELISA plate at 100 μl/well. The plate is sealed with a plastic film and incubated at 4° C. overnight. […] A450 nm value is read using an ELISA plate reader (SpectraMax 384plus, purchased from Molecular Device), and the results are shown in FIG. 11 and table 19.
measuredProperty: OD450 nm at 0.001 nM antibody
# include the unit after the value

The binder Chimeric antibody 7E5 (antibody, human IgG1, V domains shown, also called clone 7E5-2A9) VH: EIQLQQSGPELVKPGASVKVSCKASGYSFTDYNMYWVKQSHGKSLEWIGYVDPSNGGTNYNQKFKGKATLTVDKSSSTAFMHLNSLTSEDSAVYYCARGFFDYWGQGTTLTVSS VL: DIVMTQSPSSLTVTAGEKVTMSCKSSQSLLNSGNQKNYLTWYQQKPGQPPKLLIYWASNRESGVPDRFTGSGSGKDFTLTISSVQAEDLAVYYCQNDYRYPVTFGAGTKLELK showed OD450 nm at 0.001 nM antibody equal to 0.08 OD450

The binder Chimeric antibody 63A10 (antibody, human IgG1, V domains shown, also called c63A10A7; chimeric antibody c63A10A7) VH: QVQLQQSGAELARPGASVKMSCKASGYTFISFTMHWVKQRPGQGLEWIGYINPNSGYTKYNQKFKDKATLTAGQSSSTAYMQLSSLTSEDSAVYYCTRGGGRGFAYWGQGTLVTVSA VL: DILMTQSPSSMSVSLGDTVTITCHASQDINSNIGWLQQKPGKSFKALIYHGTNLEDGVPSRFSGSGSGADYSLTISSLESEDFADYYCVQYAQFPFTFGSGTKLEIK showed OD450 nm at 0.001 nM antibody equal to 0.11 OD450

The binder Chimeric antibody 75G7 (antibody, human IgG1, V domains shown, also called c75G7C6; chimeric antibody c75G7C6) VH: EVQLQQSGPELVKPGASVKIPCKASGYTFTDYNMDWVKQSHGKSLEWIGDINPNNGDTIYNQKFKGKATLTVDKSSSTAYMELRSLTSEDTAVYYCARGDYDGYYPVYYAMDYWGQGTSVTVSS VL: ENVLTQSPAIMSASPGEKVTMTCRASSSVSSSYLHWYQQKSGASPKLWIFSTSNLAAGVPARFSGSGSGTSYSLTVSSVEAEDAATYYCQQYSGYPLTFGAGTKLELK showed OD450 nm at 0.001 nM antibody equal to 0.08 OD450

The binder Chimeric antibody 64F1 (antibody, human IgG1, V domains shown, also called clone 64F1F8) VH: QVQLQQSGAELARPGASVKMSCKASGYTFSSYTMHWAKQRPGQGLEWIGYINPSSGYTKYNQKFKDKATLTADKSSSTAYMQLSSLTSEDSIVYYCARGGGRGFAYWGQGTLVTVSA VL: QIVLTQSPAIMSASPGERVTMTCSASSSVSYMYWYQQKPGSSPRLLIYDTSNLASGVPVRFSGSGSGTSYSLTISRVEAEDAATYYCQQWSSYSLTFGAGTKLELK showed OD450 nm at 0.001 nM antibody equal to 0.11 OD450
